experiment_notes: Approximate (kinetic) solubility estimate by aliquot addition with visual inspection
Type: physicochemical
condition_info: thermodynamic from solid; Water, ambient temperature
readout_type: solubility

smiles_repr	readout_type	recorded_measurement
C=C(C)[C@@H]1CCC(C)=C[C@H]1c1c(O)cc(CCCCC)cc1O	solubility	< 1000 µg/mL

---

experiment_notes: Approximate (kinetic) solubility estimate by aliquot addition with visual inspection
Assay type: physicochemical
condition_info: organic solvent or mixture, thermodynamic from solid; DMSO, ambient temperature

smiles_repr	solubility
C=C(C)[C@@H]1CCC(C)=C[C@H]1c1c(O)cc(CCCCC)cc1O	21 mg/mL

---

experiment_notes: Approximate (kinetic) solubility estimate by aliquot addition with visual inspection
Format: physicochemical
condition_info: organic solvent or mixture, thermodynamic from solid; MeOH, ambient temperature

smiles_repr	solubility
C=C(C)[C@@H]1CCC(C)=C[C@H]1c1c(O)cc(CCCCC)cc1O	> 57 mg/mL

---

experiment_notes: Approximate (kinetic) solubility estimate by aliquot addition with visual inspection
Type: physicochemical
condition_info: organic solvent or mixture, thermodynamic from solid; THF, ambient temperature
readout_type: solubility

smiles_repr	recorded_measurement
C=C(C)[C@@H]1CCC(C)=C[C@H]1c1c(O)cc(CCCCC)cc1O	> 71 mg/mL

---

experiment_notes: Approximate (kinetic) solubility estimate by aliquot addition with visual inspection
Assay type: physicochemical
condition_info: organic solvent or mixture, thermodynamic from solid; IPA, ambient temperature
readout_type: solubility (mg/mL)

smiles_repr	readout_type	recorded_measurement
C=C(C)[C@@H]1CCC(C)=C[C@H]1c1c(O)cc(CCCCC)cc1O	solubility	14

---

experiment_notes: Approximate (kinetic) solubility estimate by aliquot addition with visual inspection
Format: physicochemical
condition_info: organic solvent or mixture, thermodynamic from solid; EtOAc, ambient temperature

molecule	solubility
C=C(C)[C@@H]1CCC(C)=C[C@H]1c1c(O)cc(CCCCC)cc1O [Cannabidiol]	> 46 mg/mL

---

experiment_notes: Approximate (kinetic) solubility estimate by aliquot addition with visual inspection
Type: physicochemical
condition_info: organic solvent or mixture, thermodynamic from solid; NMP, ambient temperature

smiles_repr	solubility
C=C(C)[C@@H]1CCC(C)=C[C@H]1c1c(O)cc(CCCCC)cc1O	29 mg/mL

---

experiment_notes: Approximate (kinetic) solubility estimate by aliquot addition with visual inspection
Assay type: physicochemical
condition_info: organic solvent or mixture, thermodynamic from solid; p-dioxane, ambient temperature

smiles_repr	solubility
C=C(C)[C@@H]1CCC(C)=C[C@H]1c1c(O)cc(CCCCC)cc1O	> 48 mg/mL

---

experiment_notes: Approximate (kinetic) solubility estimate by aliquot addition with visual inspection
Type: physicochemical
condition_info: organic solvent or mixture, thermodynamic from solid; Octanol, ambient temperature
readout_type: solubility

smiles_repr	readout_type	recorded_measurement
C=C(C)[C@@H]1CCC(C)=C[C@H]1c1c(O)cc(CCCCC)cc1O	solubility	13 mg/mL

---

experiment_notes: Approximate (kinetic) solubility estimate by aliquot addition with visual inspection
Assay type: physicochemical
condition_info: organic solvent or mixture, thermodynamic from solid; TFE, ambient temperature

smiles_repr	solubility
C=C(C)[C@@H]1CCC(C)=C[C@H]1c1c(O)cc(CCCCC)cc1O	< 1000 µg/mL

---

experiment_notes: Approximate (kinetic) solubility estimate by aliquot addition with visual inspection
Format: physicochemical
condition_info: organic solvent or mixture, thermodynamic from solid; Acetonitrile, ambient temperature
Procedure: Weighed samples were treated with aliquots of a solvent or solvent mixture at RT. The mixtures were sonicated between additions to facilitate dissolution. Complete dissolution of the test material was determined by visual inspection. Solubility was estimated based on the total solvent used to provide complete dissolution. The actual solubility may be greater than the value calculated because of the use of solvent aliquots that were too large or due to a slow rate of dissolution. […]

compound	solubility
C=C(C)[C@@H]1CCC(C)=C[C@H]1c1c(O)cc(CCCCC)cc1O [Cannabidiol]	> 50 mg/mL
